This section presents pKi values reported for 5-hydroxytryptamine receptor 6 (Homo sapiens, UniProt P50406) in the literature.
pKi: −log10 of the molar value.
Rule: pKi of 7 or more gives YES; anything lower gives NO.

* CCN/C(=N\S(=O)(=O)c1ccc2[nH]ccc2c1)N1CC2(C=N1)CCNCC2 | YES
* O=S(=O)(c1cccc(F)c1)c1ccc2c3c(oc2c1)C1(CCOC1)NCC3 (racemic) | YES
* CC(C)c1ccccc1OCCN1CCC(NS(=O)(=O)c2cnn(C)c2)CC1 | NO
* O=C1CC(CN2CCC(c3noc4cc(F)ccc34)CC2)Cc2[nH]ncc21 (stereo not given) | NO
* CC(C)c1ccccc1N1CCN(CCCCCCC(=O)N2CCC[C@H]2C(=O)N2CCCCC2)CC1 | NO
* COc1cccc(S(=O)(=O)c2ccc3c4c(oc3c2)CNCC4)c1 | YES
* O=S(=O)(c1ccccc1)n1ccc2c(N3CCN(CCCOc4ccc(F)cc4)CC3)cccc21 | YES
* O=C1c2ccccc2S(=O)(=O)N1CCCCCCN1CCN(c2nsc3ccccc23)CC1 | YES
* CCN1CCCC(n2cc(S(=O)(=O)c3ccccc3)c3cccnc32)C1 (stereo not given) | YES
* CCN/C(=N\S(=O)(=O)c1ccc2[nH]ncc2c1)N1CC2(C=N1)CCCC2 | YES
* O=S(=O)(NCCCCN1CCc2ccccc2C1)c1cccc2cccnc12 | NO
* NC(=O)c1ccccc1OCCCNCCc1cn(Cc2ccccc2)c2ccccc12 | NO
* Cn1c(=O)c2c(ncn2CCCCN2CCN(c3ccc(Cl)c(Cl)c3)CC2)n(C)c1=O | NO
* CC(C)S(=O)(=O)n1ccc2c(-c3ccc(C(F)(F)F)cc3)cc(N3CCN(C)CC3)nc21 | YES
* CC(C)n1nc(S(=O)(=O)c2cccc3ccccc23)c2cc(N3CCNCC3)ccc21 | YES
* COc1ccc2ccn(S(=O)(=O)c3ccc(N)cc3)c2c1 | YES
* CN1CCN(Cc2ccc3c(ccn3C(=O)c3ccccc3)c2)CC1 | NO

---

This section presents Ki values reported for UniProt:P50406 in the literature.
measured.quantity: Ki (µM)

* COc1ccccc1-c1cc(CN(C)C)ccc1Cl | 0.44
* O=S(=O)(NC1CCN(CCOc2cccc3c2CCCC3)C1)c1cccs1 (stereo not given) | 0.102
* CC(C)(C)OC(=O)N1CC=C(c2cn(S(=O)(=O)c3ccccc3)c3ccccc23)CC1 | 0.054
* CN(C)CCn1cc(S(=O)(=O)c2cc(Cl)cc(Cl)c2)c2cccnc21 | 0.0043
* COc1ccccc1N1CCN(CCCNS(=O)(=O)c2cccc3cccnc23)CC1 | 1.64
* COc1c(OCCF)cccc1C(O)C1CCN(CCc2ccc(F)cc2)CC1 (stereo not given) | 3.89
* O=C1Nc2ccccc2C1CCCCN1CCN(c2ccc(Cl)cc2)CC1 (stereo not given) | 0.58
* C#CCNC1CCc2c(OCCCCCN3CCN(c4cccc5c4ccn5S(=O)(=O)c4ccccc4)CC3)cccc21 (stereo not given) | 0.051
* COc1ccc(C2NCCc3c2[nH]c2ccc(F)cc32)c(O)c1 (stereo not given) | 0.0688

---

pKi: −log10 of the molar value.
This section presents pKi values reported for 5-hydroxytryptamine receptor 6 (Homo sapiens, UniProt P50406) in the literature.
Rule: pKi of 7 or more gives Satisfied; anything lower gives Not satisfied.

- O=S(=O)(c1ccc(C(F)(F)F)cc1)c1cn(C2CCCNC2)c2ncccc12 (configuration not stated): Satisfied
- CCN/C(=N\S(=O)(=O)c1cccc(Cl)c1)N1N=CCC1c1ccc(N)cc1 (configuration not stated): Not satisfied
- COc1ccc(C2(C)C(=O)Nc3cc(Cl)cc(Cl)c3C2=O)cc1[N+](=O)[O-] (configuration not stated): Not satisfied
- O=S(=O)(c1cccc(F)c1)c1n[nH]c2cc(N3CCNCC3)ccc12: Satisfied
- COc1ccc(S(=O)(=O)Nc2cc([N+](=O)[O-])ccc2C)cc1N1CCNCC1: Satisfied
- COc1ccc(S(=O)(=O)N2CCCc3c(Cl)cc(Cl)cc32)cc1N1CCNCC1: Satisfied
- CCN(CC)Cc1ccc(Cl)c(-c2ccccc2OC)c1: Not satisfied
- CNc1nn2c(C)cc(COC)nc2c1S(=O)(=O)c1ccccc1: Satisfied
- Nc1ccc(S(=O)(=O)n2c3ccccc3c3ccccc32)cc1: Satisfied
- CNc1cccc2c1ccn2S(=O)(=O)c1ccc(N)cc1: Satisfied
- CCNc1ccc(C2(C)C(=O)Nc3cc(Cl)cc(Cl)c3C2=O)cc1 (configuration not stated): Satisfied
- COc1ccc(F)cc1OC(C)c1nc(N)nc(N2CCN(C)CC2)n1 (configuration not stated): Satisfied
- CN1CCC(N(C)C(=O)C2CN(S(=O)(=O)c3cccc(C(F)(F)F)c3)c3ccccc32)CC1 (racemic): Satisfied
- CCN/C(=N\S(=O)(=O)c1cccc(Cl)c1)N1N=CCC1c1ccco1 (racemic): Satisfied
- O=S(=O)(c1cccc2ccccc12)c1n[nH]c2c(NCC3CCNCC3)cccc12: Satisfied
- CCCN/C(=N\S(=O)(=O)c1cccc(Cl)c1)N1CC(CC)C=N1 (configuration not stated): Satisfied
- Cc1ccc2c(OCCN3CCC(Cc4ccc5c(c4)NC(=O)CO5)CC3)cccc2n1: Not satisfied
- Cl.NCCC(=O)Nc1ccc2[nH]nc(S(=O)(=O)c3cccc4ccccc34)c2c1: Satisfied
- O=S(=O)(c1cncc2ccccc12)N1CCCCC[C@H]1CCN1CCN(c2cccc3sccc23)CC1: Not satisfied
- CCN/C(=N\S(=O)(=O)c1ccc(N(C)C)cc1)N1CC(CC)C=N1 (configuration not stated): Not satisfied
- CCC(Oc1cccc(F)c1F)c1nc(N)nc(N2CCN(C)CC2)n1 (configuration not stated): Satisfied
- CCN/C(=N\S(=O)(=O)c1ccc(N)cc1)N1CC2(C=N1)CCNCC2: Satisfied
- CN(C)CCc1cn(Cc2ccc(C(F)(F)F)cc2)c2ccccc12: Not satisfied
- CCCc1c(CCN(C)C)c2cc(OC)ccc2n1S(=O)(=O)c1ccccc1: Satisfied
- CC(N)CNc1ccc2[nH]nc(S(=O)(=O)c3cccc4ccccc34)c2c1 (configuration not stated): Satisfied
- COc1cccc(S(=O)(=O)n2c3c(c4ccccc42)CCNCC3)c1: Satisfied
- CCN/C(=N\S(=O)(=O)c1cccc(Cl)c1)N1N=CCC1c1ccncc1 (racemic): Not satisfied
- CNCc1ccc(Cl)c(-c2ccccc2OC)c1: Not satisfied
- O=C1c2cccc3cccc(c23)N1CCCCCCN1CCN(c2ccc(Cl)c(Cl)c2)CC1: Not satisfied
- Nc1ccc(S(=O)(=O)Nc2ccc3cc[nH]c3c2)cc1: Not satisfied
- COc1ccccc1N1CCN(CCCCCCN2C(=O)c3ccccc3S2(=O)=O)CC1: Not satisfied
- COc1c(OCCF)cccc1C(=O)C1CCN(CCc2ccc([N+](=O)[O-])cc2)CC1: Not satisfied
- Fc1cccc2c1nc(OCC1CCN(CCCC(F)(F)F)CC1)c1cccnc12: Not satisfied
- C=Cc1ccc(N2CCN(Cc3c[nH]c4ncccc34)CC2)cc1: Not satisfied
- CN1CCC(n2cc(S(=O)(=O)c3ccc(Cl)cc3)c3cccnc32)C1 (configuration not stated): Satisfied
- CSc1nn2c3c(c(C)nc2c1S(=O)(=O)c1ccccc1)CNCC3: Satisfied
